Entries and their measured pKd follow.
# system name: T1, EsCas13d, nuclease-dead (Eubacterium siraeum, UniProt B0MS50, R295A;H300A;R849A;H854A)
# T1 sequence: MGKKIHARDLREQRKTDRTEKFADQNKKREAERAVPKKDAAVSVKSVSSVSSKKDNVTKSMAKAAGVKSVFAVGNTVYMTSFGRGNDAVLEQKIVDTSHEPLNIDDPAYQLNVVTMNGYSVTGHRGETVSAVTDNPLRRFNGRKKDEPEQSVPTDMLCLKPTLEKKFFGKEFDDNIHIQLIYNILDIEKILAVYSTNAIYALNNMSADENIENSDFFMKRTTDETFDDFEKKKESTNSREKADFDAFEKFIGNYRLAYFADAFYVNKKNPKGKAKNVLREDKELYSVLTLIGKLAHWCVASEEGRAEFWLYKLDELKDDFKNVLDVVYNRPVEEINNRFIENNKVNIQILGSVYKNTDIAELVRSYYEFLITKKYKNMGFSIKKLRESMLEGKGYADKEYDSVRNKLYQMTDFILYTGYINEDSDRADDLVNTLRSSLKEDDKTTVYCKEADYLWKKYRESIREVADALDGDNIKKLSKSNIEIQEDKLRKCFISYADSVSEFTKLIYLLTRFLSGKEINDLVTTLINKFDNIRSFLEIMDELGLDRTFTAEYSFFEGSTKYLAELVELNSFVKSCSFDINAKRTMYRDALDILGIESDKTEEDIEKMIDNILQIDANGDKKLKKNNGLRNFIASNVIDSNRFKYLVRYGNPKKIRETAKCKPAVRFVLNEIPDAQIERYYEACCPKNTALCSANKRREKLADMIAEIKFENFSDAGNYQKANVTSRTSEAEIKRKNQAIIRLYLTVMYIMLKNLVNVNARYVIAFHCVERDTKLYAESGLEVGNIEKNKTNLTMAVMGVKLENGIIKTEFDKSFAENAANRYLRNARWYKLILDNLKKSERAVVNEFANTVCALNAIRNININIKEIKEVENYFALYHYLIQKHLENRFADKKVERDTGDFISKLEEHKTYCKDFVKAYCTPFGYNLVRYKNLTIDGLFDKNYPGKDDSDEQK
# assay name: crRNA (strand 1, pre-loaded); Mg2+; 40 mM Tris-HCl pH 7.5, 150 mM NaCl, 6 mM MgCl2, 1 mM DTT, 0.1% Tween-20, 0.2 mg/ml BSA; 25 C; 10 min per concentration, then washed
# condition description: tags: His6-TwinStrep-SUMO cleaved; N-terminal SNAP kept (SNAP-Surface 488); label: 3' end held by stalled T7 RNA polymerase
Scale for pKd: -log10 of concentration given in mol/L; no unit attached.

As a guide, the following entries are already answered.
1) target 1 complement block 4-11 (mixed) RNA 1: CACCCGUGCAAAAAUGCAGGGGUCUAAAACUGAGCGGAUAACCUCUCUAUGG RNA 2: GGGAAUGGAUCCACAUCUACGAAUUCGUACCAUAGAGAGGAAUAGGCGUCACCGAGAUCGGAAGAGCACACGU; 7.91
2) target 1 MT 5'PFS GUG 3'PFS GGA (mixed) RNA 1: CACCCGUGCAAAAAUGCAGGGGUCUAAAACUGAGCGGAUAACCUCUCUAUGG RNA 2: GGGAAUGGAUCCACAUCUACGAAUUCGUGCCAUAGAGAGGUUAUCCGCUCAGGAAGAUCGGAAGAGCACACGU; 7.69
3) target 1 insA 3' of 2 (mixed) RNA 1: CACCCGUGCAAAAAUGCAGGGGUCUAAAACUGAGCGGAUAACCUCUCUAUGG RNA 2: GGGAAUGGAUCCACAUCUACGAAUUCGUACCAUAGAGAGGUUAUCCGCUCAACCGAGAUCGGAAGAGCACACGU; 8.07
4) target 3 C1G,U2G (mixed) RNA 1: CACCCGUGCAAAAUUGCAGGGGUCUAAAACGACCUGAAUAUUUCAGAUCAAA RNA 2: GGGAAUGGAUCCACAUCUACGAAUUCGUUUUUGAUCUGAAAUAUUCAGGGGUGCAGAUCGGAAGAGCACACGU; 7.89
5) target 1 insU 3' of 7,insU 3' of 2 (mixed) RNA 1: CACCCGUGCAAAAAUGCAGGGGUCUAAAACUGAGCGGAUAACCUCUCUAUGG RNA 2: GGGAAUGGAUCCACAUCUACGAAUUCGUACCAUAGAGAGGUUAUCUCGCUCUACCGAGAUCGGAAGAGCACACGU; 7.67

Give pKd for the following binder: target 1 insA 3' of 15,insA 3' of 5 (mixed) RNA 1: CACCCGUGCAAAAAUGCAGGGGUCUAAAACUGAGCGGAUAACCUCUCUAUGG RNA 2: GGGAAUGGAUCCACAUCUACGAAUUCGUACCAUAGAGAAGGUUAUCCGACUCACCGAGAUCGGAAGAGCACACGU
7.80

Give pKd for the following binder: target 1 U10C,G15A (mixed) RNA 1: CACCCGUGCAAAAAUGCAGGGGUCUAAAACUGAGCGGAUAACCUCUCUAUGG RNA 2: GGGAAUGGAUCCACAUCUACGAAUUCGUACCAUAGAAAGGUCAUCCGCUCACCGAGAUCGGAAGAGCACACGU
7.50
